- TARGET_OR_SYSTEM: T1, IL-12 (Human IL12 (His Tag)), Sino Biological Cat. No. CT-050-H08H-20 (human, UniProt P29460 23-328; P29459 23-219)
- T1 construct: Bought His-tagged p35/p40 heterodimer
- T1 sequence (looked up) 1: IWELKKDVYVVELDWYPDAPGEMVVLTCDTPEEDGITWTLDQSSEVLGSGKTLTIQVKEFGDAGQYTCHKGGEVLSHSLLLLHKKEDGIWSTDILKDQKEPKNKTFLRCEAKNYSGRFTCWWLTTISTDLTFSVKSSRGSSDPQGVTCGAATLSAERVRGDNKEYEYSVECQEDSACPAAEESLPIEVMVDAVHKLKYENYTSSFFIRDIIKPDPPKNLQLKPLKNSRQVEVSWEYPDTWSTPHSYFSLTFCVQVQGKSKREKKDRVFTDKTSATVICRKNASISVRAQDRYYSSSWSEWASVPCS
- T1 sequence (looked up) 2: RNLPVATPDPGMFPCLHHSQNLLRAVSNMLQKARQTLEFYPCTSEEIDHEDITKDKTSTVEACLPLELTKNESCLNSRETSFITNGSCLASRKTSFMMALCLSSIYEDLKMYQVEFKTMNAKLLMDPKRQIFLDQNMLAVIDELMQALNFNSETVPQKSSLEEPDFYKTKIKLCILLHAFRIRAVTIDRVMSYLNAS
- ASSAY_SUMMARY: FACS competition, IL-12-His 20 nM on 293T-IL-12RB1&IL-23R cells, antibody 1.11 µg/mL
PARAMETER_MEASURED: MFI
# answer = number (no unit)

Example entries begin here.
INSERT INTO assay_data (binder, measurement) VALUES
  ('H5L9 (antibody, human IgG1, kappa, V domains shown, Humanized anti-human IL-12/IL-23 p40 antibody; IgG1 (P01857) / kappa (P01834) constant regions) VH: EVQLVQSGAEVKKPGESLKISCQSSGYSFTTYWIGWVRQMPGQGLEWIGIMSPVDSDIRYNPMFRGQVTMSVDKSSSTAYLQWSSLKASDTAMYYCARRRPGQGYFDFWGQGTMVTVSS VL: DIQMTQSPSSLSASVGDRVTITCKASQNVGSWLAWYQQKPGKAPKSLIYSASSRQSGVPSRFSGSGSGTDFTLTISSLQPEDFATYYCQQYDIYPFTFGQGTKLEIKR', 157),
  ('H5L12 (antibody, human IgG1, kappa, V domains shown, IgG1/kappa) VH: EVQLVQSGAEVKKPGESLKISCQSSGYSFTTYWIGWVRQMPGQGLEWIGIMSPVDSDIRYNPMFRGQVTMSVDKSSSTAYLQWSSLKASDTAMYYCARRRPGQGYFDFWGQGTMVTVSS VL: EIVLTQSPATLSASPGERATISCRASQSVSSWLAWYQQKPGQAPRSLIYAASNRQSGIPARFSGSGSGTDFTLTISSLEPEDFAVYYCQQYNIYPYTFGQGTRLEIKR', 38.5),
  ('H5L10 (antibody, human IgG1, kappa, V domains shown, IgG1/kappa) VH: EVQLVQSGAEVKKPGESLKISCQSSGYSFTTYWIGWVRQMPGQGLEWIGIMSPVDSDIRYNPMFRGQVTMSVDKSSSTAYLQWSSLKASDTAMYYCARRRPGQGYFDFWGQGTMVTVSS VL: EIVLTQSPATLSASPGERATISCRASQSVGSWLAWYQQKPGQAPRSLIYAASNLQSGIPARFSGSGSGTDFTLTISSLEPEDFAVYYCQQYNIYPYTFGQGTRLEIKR', 44.6),
  ('H5L11 (antibody, human IgG1, kappa, V domains shown, IgG1/kappa) VH: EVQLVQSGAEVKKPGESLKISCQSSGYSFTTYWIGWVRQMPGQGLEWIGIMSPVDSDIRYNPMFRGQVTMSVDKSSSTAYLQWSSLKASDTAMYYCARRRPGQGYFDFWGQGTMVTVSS VL: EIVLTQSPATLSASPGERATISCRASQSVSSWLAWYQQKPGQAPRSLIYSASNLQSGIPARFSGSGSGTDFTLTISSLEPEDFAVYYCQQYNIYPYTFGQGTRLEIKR', 54.3),
  ('ustekinumab (trade name Stelara) (antibody, V domains shown) VH: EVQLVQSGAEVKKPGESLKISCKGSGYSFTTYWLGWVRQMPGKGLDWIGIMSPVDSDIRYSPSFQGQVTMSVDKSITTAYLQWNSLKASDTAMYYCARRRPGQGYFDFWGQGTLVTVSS VL: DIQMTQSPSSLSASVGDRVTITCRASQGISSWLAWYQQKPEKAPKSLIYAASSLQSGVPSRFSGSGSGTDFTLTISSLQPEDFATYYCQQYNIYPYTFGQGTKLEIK', 31.9);

Consider the record given below.
Look up MFI: H5L14 (antibody, human IgG1, kappa, V domains shown, IgG1/kappa) VH: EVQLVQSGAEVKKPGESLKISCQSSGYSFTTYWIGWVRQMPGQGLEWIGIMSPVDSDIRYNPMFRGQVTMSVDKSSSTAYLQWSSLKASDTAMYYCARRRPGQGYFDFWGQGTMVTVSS VL: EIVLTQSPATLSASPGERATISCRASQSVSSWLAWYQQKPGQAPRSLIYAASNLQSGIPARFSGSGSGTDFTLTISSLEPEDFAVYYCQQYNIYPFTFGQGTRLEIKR
66
